Values were extracted from PubChem BioAssay (NCI).

System: SF-268 CNS
Test: NCI tumour cell line growth inhibition, 48 h
PROPERTY LABEL: TGI

Problem: Reported TGI, molecule C=CC(C)CCC(C/C=C(\C)CCCC(C)C)C(=C)CCCC(C)C (stereo not given) : ____
Solution: > 100 µM

Problem: // same read-out, input: "Clc1ccc(/C=c2\nc(-c3ccccc3)n3c2nc2ccccc23)cc1"
Solution: > 100 µM

Problem: // same read-out, input: "COc1ccc(/C=C/C(=O)c2c(-c3ccccc3)nn(C)c(=O)c2N2CCCC2)cc1"
Solution: > 100 µM

Problem: // same read-out, input: "Cc1nc2ccc(F)cc2c2c1CCN2c1ccccc1"
Solution: > 100 µM

Problem: // same read-out, input: "COc1c(N2CCCCC2)c2c(=O)c3ccccc3oc2c2cc(C)oc12"
Solution: > 100 µM
